Reported IC50 values for the following compounds.
molecular target: Avi-KRAS G12D (1-169) GppNHp/RAF1 RBD-3xFLAG (52-151) (Homo sapiens, UniProt P01116, G12D); construct: Avi-KRAS G12D (1-169); assay: Raf1-KRAS G12D-GppNHP disruption HTRF assay (Biological Example 1); assay type: binding; conditions: KRAS G12D-GppNHp/RAF1 RBD HTRF
Sequence (P01116 1-169 isoform P01116-2 G12D): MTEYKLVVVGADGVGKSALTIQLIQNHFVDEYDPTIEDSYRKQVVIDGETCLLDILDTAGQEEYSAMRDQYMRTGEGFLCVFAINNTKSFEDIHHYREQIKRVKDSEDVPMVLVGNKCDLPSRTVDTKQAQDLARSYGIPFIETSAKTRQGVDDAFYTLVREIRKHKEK

CC(=O)N1CC[C@@H](N(C)c2nc(OC[C@@]34CCCN3C[C@H](F)C4)nc3c(F)c(-c4ccc(F)c5sc(N)c(C#N)c45)c(Cl)cc23)[C@H]1C [Compound 398]    100 to 1000 nM
CCN(c1nc(OC[C@@]23CCCN2C[C@H](F)C3)nc2c(F)c(-c3ccc(F)c4sc(N)c(C#N)c34)c(C(F)(F)F)cc12)[C@@H]1CCN(C(=O)OC)[C@@H]1C [Compound 489]    100 to 1000 nM
CCN(c1nc(OC[C@@]23CCCN2C[C@H](F)C3)nc2c(F)c(-c3ccc(F)c4sc(N)c(C#N)c34)c(C(F)(F)F)cc12)[C@H]1C[C@H](C)N(C(=O)C2CC2)C1 [Compound 470]    < 100 nM
CC(C)C(=O)N1C[C@@H](N(C)c2nc(OC[C@@]34CCCN3C[C@H](F)C4)nc3c(F)c(-c4ccc(F)c5sc(N)c(C#N)c45)c(C(F)(F)F)cc23)C[C@@H]1C [Compound 436]    1000 to 10000 nM

Quick one: IC50 of CCN(c1nc(OC[C@@]23CCCN2C[C@H](F)C3)nc2c(F)c(-c3ccc(F)c4sc(N)c(C#N)c34)c(C(F)(F)F)cc12)[C@H]1C[C@H](C)N(C(=O)COC)C1 (atropisomer, axis not shown) [Compound 538] ?
< 100 nM

Quick one: IC50 of N#Cc1c(N)sc2c(F)ccc(-c3c(C(F)(F)F)cc4c(N5CCS(=N)(=O)CC5)nc(OC[C@@]56CCCN5C[C@H](F)C6)nc4c3F)c12 [Compound 297] ?
100 to 1000 nM

Quick one: IC50 of CCN(c1nc(OC[C@@]23CCCN2C[C@H](F)C3)nc2c(F)c(-c3ccc(F)c4sc(N)c(C#N)c34)c(C(F)(F)F)cc12)[C@H]1CCN(C(=O)C2(F)CC2)C1 (atropisomer, axis not shown) [Compound 559] ?
< 100 nM

* * *

molecular target: Avi-KRAS WT (1-169) GppNHp/RAF1 RBD-3xFLAG (52-151) (Homo sapiens); construct: Avi-KRAS WT (1-169); test: Raf1-KRAS WT-GppNHP disruption HTRF assay (Biological Example 1); format: binding; details: KRAS WT, GppNHp-loaded; class symbols
Sequence (P01116 1-169 isoform P01116-2): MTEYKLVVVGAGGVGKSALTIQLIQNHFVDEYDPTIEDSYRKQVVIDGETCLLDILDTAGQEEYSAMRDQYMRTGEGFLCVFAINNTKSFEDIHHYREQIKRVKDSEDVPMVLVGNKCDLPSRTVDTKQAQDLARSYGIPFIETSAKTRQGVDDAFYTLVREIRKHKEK
pIC50: −log10 of the molar value.
OUTCOME MEASURE: pIC50

Take a look at these entries with their results.
CC#CC(=O)N1CC[C@H](N(CC)c2nc(OC[C@@]34CCCN3C[C@H](F)C4)nc3c(F)c(-c4ccc(F)c5sc(N)c(C#N)c45)c(C(F)(F)F)cc23)C1 (atropisomer, axis not shown)    > 7.00
N#Cc1c(N)sc2c(F)ccc(-c3c(C(F)(F)F)cc4c(N(C5CC5)[C@H]5CCN(C(=O)N6CC(F)C6)C5)nc(OC[C@@]56CCCN5C[C@H](F)C6)nc4c3F)c12 (atropisomer, axis not shown)    6.00 to 7.00
CCN(c1nc(OC[C@@]23CCCN2C[C@H](F)C3)nc2c(F)c(-c3ccc(F)c4sc(N)c(C#N)c34)c(C(F)(F)F)cc12)[C@H]1C[C@H]2CCC(=O)N2C1 (atropisomer, axis not shown; (aR))    > 7.00

Kindly consider the entry below.
Recall the recorded pIC50 for CCN(c1nc(OC[C@@]23CCCN2C[C@H](F)C3)nc2c(F)c(-c3ccc(F)c4sc(N)c(C#N)c34)c(C(F)(F)F)cc12)[C@H]1C[C@@H](C)N(C(=O)c2ccon2)C1 (atropisomer, axis not shown) with Avi-KRAS WT (1-169) GppNHp/RAF1 RBD-3xFLAG (52-151) (Homo sapiens) and state it.
6.00 to 7.00

* * *

Reported IC50 values for the following compounds.
biological target: Avi-KRAS G12V (2-169) GTP/RAF1 RBD-3xFLAG (51-131) (Homo sapiens, UniProt P01116, G12V); construct: Avi-KRAS G12V (2-169); assay: Raf1-KRAS G12V-GTP disruption HTRF assay (Biological Example 3); assay type: binding; settings: KRAS G12V, GTP-loaded
Sequence (P01116 2-169 isoform P01116-2 G12V): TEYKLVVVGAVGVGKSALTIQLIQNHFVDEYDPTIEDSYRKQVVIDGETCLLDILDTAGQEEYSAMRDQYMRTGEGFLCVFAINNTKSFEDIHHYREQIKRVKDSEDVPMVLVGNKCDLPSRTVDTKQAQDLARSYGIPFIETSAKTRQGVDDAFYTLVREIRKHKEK

Take a look at these entries with their results.
CCN(c1nc(OC[C@@]23CCCN2C[C@H](F)C3)nc2c(F)c(-c3ccc(F)c4sc(N)c(C#N)c34)c(C(F)(F)F)cc12)[C@H]1CC[C@](C)(C(=O)N(C)C)C1 (atropisomer, axis not shown)    1 to 10 µM
CCN(c1nc(OC[C@@]23CCCN2C[C@H](F)C3)nc2c(F)c(-c3ccc(F)c4sc(N)c(C#N)c34)c(C(F)(F)F)cc12)[C@H]1CC(=O)N(C)C1 (atropisomer, axis not shown)    0.1 to 1 µM

Quick one: IC50 of CN(Cc1cnco1)c1nc(OC[C@@]23CCCN2C[C@H](F)C3)nc2c(F)c(-c3ccc(F)c4sc(N)c(C#N)c34)c(C(F)(F)F)cc12 ?
1 to 10 µM

Quick one: IC50 of CCN(c1nc(OC[C@@]23CCCN2C[C@H](F)C3)nc2c(F)c(-c3ccc(F)c4sc(N)c(C#N)c34)c(C(F)(F)F)cc12)[C@H]1CC(=O)N(C2CC2)C1 (atropisomer, axis not shown) ?
≤ 0.1 µM

Quick one: IC50 of CCN(c1nc(OC[C@@]23CCCN2C[C@H](F)C3)nc2c(F)c(-c3ccc(F)c4sc(N)c(C#N)c34)c(C(F)(F)F)cc12)[C@@H]1CCCN(C)C1=O (atropisomer, axis not shown) ?
1 to 10 µM

Quick one: IC50 of CCN(c1nc(OC[C@@]23CCCN2C[C@H](F)C3)nc2c(F)c(-c3ccc(F)c4sc(N)c(C#N)c34)c(C(F)(F)F)cc12)[C@H]1CCN(C(=O)C2CC2)C1 ?
0.1 to 1 µM

Quick one: IC50 of C[C@H]1Cn2nc(C(=O)N(C)C)cc2CN1c1nc(OC[C@@]23CCCN2C[C@H](F)C3)nc2c(F)c(-c3ccc(F)c4sc(N)c(C#N)c34)c(C(F)(F)F)cc12 (atropisomer, axis not shown) ?
0.1 to 1 µM

Quick one: IC50 of CN(Cc1ccnnc1)c1nc(OC[C@@]23CCCN2C[C@H](F)C3)nc2c(F)c(-c3ccc(F)c4sc(N)c(C#N)c34)c(C(F)(F)F)cc12 (atropisomer, axis not shown) ?
1 to 10 µM

* * *

Reported IC50 values for the following compounds.
target: Avi-KRAS G12R (1-169) GppNHp/RAF1 RBD-3xFLAG (52-151) (Homo sapiens, UniProt P01116, G12R); construct: Avi-KRAS G12R (1-169); assay: Raf1-KRAS G12R-GppNHP disruption HTRF assay (Biological Example 1); type: binding; conditions: KRAS G12R-GppNHp/RAF1 RBD HTRF
Sequence (P01116 1-169 isoform P01116-2 G12R): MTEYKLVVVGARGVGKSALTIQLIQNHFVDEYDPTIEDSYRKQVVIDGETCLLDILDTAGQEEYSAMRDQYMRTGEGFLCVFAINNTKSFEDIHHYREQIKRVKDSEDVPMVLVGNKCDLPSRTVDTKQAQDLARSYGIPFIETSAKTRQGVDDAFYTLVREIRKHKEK

Take a look at these entries with their results.
N#Cc1c(N)sc2c(F)ccc(-c3c(C(F)(F)F)cc4c(N5[C@@H]6CO[C@H]7C6OC[C@H]75)nc(OC[C@@]56CCCN5C[C@H](F)C6)nc4c3F)c12 [Compound 382]    1000 to 10000 nM
CCN(c1nc(OC[C@@]23CCCN2C[C@H](F)C3)nc2c(F)c(-c3ccc(F)c4sc(N)c(C#N)c34)c(C(F)(F)F)cc12)[C@@H]1C[C@H](C)N(C(C)=O)C1 (atropisomer, axis not shown) [Compound 534]    100 to 1000 nM
CN(c1nc(OC[C@@]23CCCN2C[C@H](F)C3)nc2c(F)c(-c3ccc(F)c4sc(N)c(C#N)c34)c(C(F)(F)F)cc12)[C@@H]1C[C@H]2COC(=O)N2C1 [Compound 476]    100 to 1000 nM

Quick one: IC50 of CCN(c1nc(OC[C@@]23CCCN2C[C@H](F)C3)nc2c(F)c(-c3ccc(F)c4sc(N)c(C#N)c34)c(C(F)(F)F)cc12)[C@H]1C[C@H](C)N(C(=O)C(C)C)C1 [Compound 471] ?
100 to 1000 nM

Quick one: IC50 of CN(c1nc(OC[C@@]23CCCN2C[C@H](F)C3)nc2c(F)c(-c3ccc(F)c4sc(N)c(C#N)c34)c(C(F)(F)F)cc12)C1CCS(=O)(=O)CC1 [Compound 330] ?
1000 to 10000 nM

Quick one: IC50 of CN1C[C@@H](N(C)c2nc(OC[C@@]34CCCN3C[C@H](F)C4)nc3c(F)c(-c4ccc(F)c5sc(N)c(C#N)c45)c(C(F)(F)F)cc23)CC1=O [Compound 338] ?
100 to 1000 nM

Quick one: IC50 of CC(=O)N1CC[C@@H](N(C)c2nc(OC[C@@]34CCCN3C[C@H](F)C4)nc3c(F)c(-c4ccc(F)c5sc(N)c(C#N)c45)c(Cl)cc23)[C@H]1C [Compound 398] ?
100 to 1000 nM

Quick one: IC50 of CCN(c1nc(OC[C@@]23CCCN2C[C@H](F)C3)nc2c(F)c(-c3ccc(F)c4sc(N)c(C#N)c34)c(C(F)(F)F)cc12)[C@H]1CCN(C(=O)C(F)F)C1 (atropisomer, axis not shown) [Compound 547] ?
< 100 nM

Quick one: IC50 of CCN(c1nc(OC[C@@]23CCCN2C[C@H](F)C3)nc2c(F)c(-c3ccc(F)c4sc(N)c(C#N)c34)c(Cl)cc12)[C@@H]1CCN(C(C)=O)[C@@H]1C [Compound 323] ?
100 to 1000 nM

Quick one: IC50 of CCN(c1nc(OC[C@@]23CCCN2C[C@H](F)C3)nc2c(F)c(-c3ccc(F)c4sc(N)c(C#N)c34)c(C(F)(F)F)cc12)[C@H]1CC(=O)N(C)C1 [Compound 482] ?
100 to 1000 nM

Reference source for all entries: patent US20260042764A1
